- Tgt: T1, EGFRvIII on U87MG cells (human, UniProt P00533 298-1210)
- T1 construct: also called de2-7 EGFR
- Assay Comment: competition FACS on U87MG de2-7 cells expressing EGFRvIII; competitor Ab1-FITC at 100 nM
Readout Name: IC50 (read off the curve)

Per the records, this binder ( Antibody M (AbM) (antibody, V domains shown, Full length IgG1) VH: EVQLQESGPGLVKPSQTLSLTCTVSGYSIGRDFAWNWIRQPPGKGLEWMGYISYNGNTRYQPSLKSRITISRDTSKNQFFLKLNSVTAADTATYYCVTASRGFPYWGQGTLVTVSS VL: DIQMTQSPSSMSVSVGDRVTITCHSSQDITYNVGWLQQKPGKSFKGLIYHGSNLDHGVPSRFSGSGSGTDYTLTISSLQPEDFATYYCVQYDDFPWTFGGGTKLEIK ) has IC50 (read off the curve) equal to ~30 nM
